test-method-notes: Drug uptake in lysosomes of human Fa2N-4 cells assessed as inhibition of LysoTracker Red fluorescence at 500 uM after 30 mins relative to control
Assay type: cell-based, Lysosome
test-settings: Fa2N-4 cells (lysosomes), probe LysoTracker Red
Exercise: for every item that follows, state its recorded inhibition at 0.5 h, 500 µM.

Value of inhibition at 0.5 h, 500 µM reported for the compound COc1ccc2c(c1)[C@]13CCCC[C@@H]1[C@H](C2)N(C)CC3 is > 25%

Value of inhibition at 0.5 h, 500 µM reported for the compound CC(CCc1ccccc1)NCC(O)c1ccc(O)c(C(N)=O)c1 (stereo not drawn) is > 25%

Value of inhibition at 0.5 h, 500 µM reported for the compound CCN(CC)Cc1cc(Nc2ccnc3cc(Cl)ccc23)ccc1O is > 25%
